Numbers sourced from ChEMBL document CHEMBL1128718.

Here the recorded MIC is given for each entry.
Tested on: Escherichia coli
protocol_notes: In Vitro antibacterial activity against (Ec L) Escherichia coli […] strain
Assay type: functional
quantity_measured: MIC

INSERT INTO measurements (compound, measurement) VALUES
  ('C[C@@H](O)[C@H]1C(=O)N2C(C(=O)O)=C(CN(C)CCC(N)=O)S[C@H]12', '1 µg/mL'),
  ('C[C@@H](O)[C@H]1C(=O)N2C(C(=O)O)=C(COC(N)=O)S[C@H]12', '1 µg/mL'),
  ('C[C@@H](O)[C@H]1C(=O)N2C(C(=O)O)=C(CN3CCCCC3C(N)=O)S[C@H]12 (stereo partly drawn)', '1 µg/mL');
